Experiment: thallium flux activation in parental CHO cells, counter-screen for KCNQ1 potentiator project (AID 493006);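 on activation: fluorescence ratio of max minus min over baseline after K+ and Tl+ depolarization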
Conditions: parental CHO-K1 cells, FluxOR thallium flux, at 10 µM
The source made the active and inactive calls.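 How the source made its calls: active means duplicate-averaged activation above buffer control mean plus 5 SD of those controls; inactive means the rest.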
Your reply should match one of these outcome classes. active, inactive

A selection of reference data follows.
[
  {
    "Compound": "COCCN1CCCC(CNCc2cn(C)nc2-c2ccc(Oc3ccccc3)cc2)C1 (stereo not given)",
    "Class label": "inactive"
  },
  {
    "Compound": "Cc1ccsc1/C=N/Nc1nc2ccccc2s1",
    "Class label": "inactive"
  },
  {
    "Compound": "S=c1[nH]nc(-c2ccc(Br)o2)n1Cc1ccccc1",
    "Class label": "inactive"
  },
  {
    "Compound": "Cc1cccc(C(=O)NC(=S)NNC(=O)COc2ccc(Cl)cc2)c1",
    "Class label": "active"
  },
  {
    "Compound": "CC1=C(C)/C(=N\\OS(=O)(=O)c2ccccc2)C=CC1=O",
    "Class label": "inactive"
  },
  {
    "Compound": "COc1ccc(CNC(=O)COC(=O)/C=C/c2ccc(Cl)cc2)cc1",
    "Class label": "inactive"
  },
  {
    "Compound": "COc1ccc(C(=O)NNC(=O)C(=O)Nc2ccc(C)cc2)cc1",
    "Class label": "active"
  },
  {
    "Compound": "Cc1cc(NC(=O)CCC(=O)N(C2CC2)C(C(=O)NC(C)(C)C)c2ccccc2Cl)no1 (stereo not given)",
    "Class label": "inactive"
  }
]

Input line: Which outcome was entered for the compound S=c1nc(SCc2ccccc2)[nH]c2ccccc12 in this test?
Output line: active

Input line: Try this compound next: CCOC(=O)C(C)Oc1cccc2c(=O)n(CC(=O)NCc3ccc4c(c3)OCO4)ccc12 (stereo not given)
Output line: inactive

Input line: Try this compound next: CCc1ccc(/C=C/C(=O)c2cc(Br)ccc(=O)c2O)cc1
Output line: active

Input line: Try this compound next: Oc1c(Br)cc(Br)cc1C=Nc1cccnc1
Output line: active

Input line: Try this compound next: O=Cc1ccccc1OCCCOc1cccc2cccnc12
Output line: inactive
